- testSystem: UniProtKB P48048
- Sequence (P48048 whole entry): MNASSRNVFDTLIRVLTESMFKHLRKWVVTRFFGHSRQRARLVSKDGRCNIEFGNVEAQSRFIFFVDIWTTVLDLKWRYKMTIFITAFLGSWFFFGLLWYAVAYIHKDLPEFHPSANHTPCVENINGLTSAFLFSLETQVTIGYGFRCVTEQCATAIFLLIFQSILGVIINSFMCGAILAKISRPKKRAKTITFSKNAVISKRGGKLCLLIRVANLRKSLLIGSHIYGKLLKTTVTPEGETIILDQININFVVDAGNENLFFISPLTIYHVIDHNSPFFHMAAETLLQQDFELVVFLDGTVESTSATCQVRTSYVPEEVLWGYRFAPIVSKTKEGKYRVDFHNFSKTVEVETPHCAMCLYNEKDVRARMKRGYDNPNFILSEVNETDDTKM
- protocolText: cell-based
- Format: cell-based
- experimentalParameters: whole-cell manual patch clamp, CHO T-Rex hROMK stable cell line, voltage step to -120 mV, Ba2+-subtracted hROMK current; read-out: ROMK EP IC50
Label YES when IC50 is strictly below 20 nM; otherwise label NO.

// query Please let me know if "COc1nc(-n2cc(CN3CCN[C@H](c4ccc5c(c4C)COC5=O)C3)nn2)cc(C)c1C#N" shows IC50 below 20 nM.
// result YES

// query Record: "COc1nc(-n2cc(CN3C[C@@H](c4ccc5c(c4C)COC5=O)N[C@@H](C)C3)nc2C)ncc1C#N"
// result YES

// query Check "Cc1cn(-c2ncc(CN3CCN[C@H](c4ccc5c(c4C)COC5=O)C3)cn2)cn1" too.
// result YES

// query And what about the compound "COc1cc(-n2ncc(CN3CCN[C@H](c4ccc5c(c4C)COC5=O)C3)n2)nc(C)c1C#N" ?
// result YES

// query Next: "Cc1cn(-c2ccc(CN3CCN[C@H](c4ccc5c(c4C)COC5=O)C3)cn2)cn1"
// result YES

// query Moving on to "COc1nc(-n2cnc(CN3C[C@@H](c4ccc5c(c4C)COC5=O)N[C@@H](C)C3)c2)ncc1C#N"
// result NO

// query Subsequent entry: Cc1cc(-n2cc(CN3CC(C)O[C@H](c4ccc5c(c4C)COC5=O)C3)cn2)ncc1C#N (some centres unmarked)
// result NO

// query Another compound to look at: "Cc1c([C@@H]2CN(Cc3ccc(-n4cnc(C#N)c4)nc3)CCN2)ccc2c1COC2=O"
// result YES

// query Please do the same for Cc1cc(-c2nnc(CN3CC(c4ccc5c(c4C)COC5=O)NC(C)(C)C3)o2)ncc1C#N (single isomer, unassigned) as well.
// result YES

// query Follow-up entry: "COc1cc(-n2cnc(CN3C[C@@H](c4ccc5c(c4C)COC5=O)N[C@@H](C)C3)c2)ccc1C#N"
// result NO

// query Query "Cc1c([C@@H]2CN(Cc3cnn(-c4ccnc(C(F)F)c4)c3)C[C@H](C)N2)ccc2c1COC2=O" next
// result YES

// query And "Cc1cn(-c2ncc(CN3CCN[C@H](c4ccc5c(c4C)COC5=O)C3)cn2)c(C)n1" ?
// result NO

// query Consider next the compound "Cc1ncn(-c2ncc(CN3C[C@@H](c4ccc5c(c4C)COC5=O)N[C@@H](C)C3)cn2)c1C" in the same way.
// result YES

// query And for "Cc1c([C@@H]2CN(Cc3ccc(-c4ccc5oc(=O)n(C)c5c4)nc3)CCO2)ccc2c1COC2=O" ?
// result NO

// query Also Cc1cc(-n2nc(C)c(CN3CC(c4ccc5c(c4C)COC5=O)NC(C)(C)C3)n2)ncc1C#N (single isomer, unassigned) ?
// result YES

// query # iterate: "Cc1cc(-n2cc(CN3C[C@@H](c4ccc5c(c4C)COC5=O)N[C@@H](C)C3)cn2)ncc1C#N"
// result YES

// query Likewise for "Cc1c([C@@H]2CN(Cc3cn(-c4ccc5oc(=O)n(C)c5c4)nn3)CCN2)ccc2c1COC2=O" ?
// result NO

// query Please do the same for "COc1cc(-n2cnc(CN3C[C@@H](c4ccc5c(c4C)COC5=O)N[C@@H](C)C3)c2)ncc1C#N" as well.
// result NO

// query Now consider "Cc1cc(-n2cc(CN3C[C@H](CO)N(C)[C@H](c4ccc5c(c4C)COC5=O)C3)cn2)ncc1C#N" and answer again.
// result NO

// query // same read-out, input: Cc1cc(-n2cc(CN3CC(c4ccc5c(c4C)COC5=O)NCC3C)cn2)ncc1C#N (single isomer, unassigned)
// result NO

// query Proceed to "Cc1cc(-c2nnc(CN3C[C@@H](c4ccc5c(c4C)COC5=O)N[C@@H](C)C3)o2)ncc1C#N"
// result NO

// query Follow-up entry: "Cc1cc(-n2ncc(CN3CCN[C@H](c4ccc5c(c4C)COC5=O)C3)n2)nc(C)c1C#N"
// result YES

// query Now give it for "COc1cc(-n2cc(CN3CCN[C@H](c4ccc5c(c4C)COC5=O)C3)nn2)ncc1C#N" too.
// result YES

// query Note, next up: "Cc1nc(-n2ncc(CN3C[C@@H](c4ccc5c(c4C)COC5=O)N[C@@H](C)C3)n2)nc(C)c1C#N"
// result NO

// query Same lookup for "COc1cc(-n2cc(CN3C[C@@H](c4ccc5c(c4C)COC5=O)N[C@@H](C)C3)cn2)ncn1" , please.
// result YES

// query // same read-out, input: "Cc1c([C@@H]2CN(Cc3ccc(-c4ccc(S(C)(=O)=O)nc4)nc3)C[C@H](C)N2)ccc2c1COC2=O"
// result NO

// query Queued: "Cc1cc(-n2cc(CN3CCO[C@H](c4ccc5c(c4C)COC5=O)C3)cn2)ncc1C#N"
// result YES

These measurements were taken from patent US10501449B2.
